# Ki per entry
Target: human TP receptor (Homo sapiens, UniProt P21731)
Construct: expressed in transfected cells; host or cells: CHO-K1
Sequence (P21731 whole entry): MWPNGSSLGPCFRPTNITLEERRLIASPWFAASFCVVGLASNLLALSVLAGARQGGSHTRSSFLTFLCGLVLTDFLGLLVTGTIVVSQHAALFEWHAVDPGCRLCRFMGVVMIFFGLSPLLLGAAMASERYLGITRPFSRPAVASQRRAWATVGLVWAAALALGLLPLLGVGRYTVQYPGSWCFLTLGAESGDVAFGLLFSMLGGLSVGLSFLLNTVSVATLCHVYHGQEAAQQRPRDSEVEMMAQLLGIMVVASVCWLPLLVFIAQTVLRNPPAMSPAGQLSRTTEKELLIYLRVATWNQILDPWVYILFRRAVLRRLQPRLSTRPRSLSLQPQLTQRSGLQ
Assay: human TP calcium mobilisation assay
Assay type: cell-based
Conditions: CHO-K1 cells, antagonism of U46619; averages of a number of experiments; read-out: functional pKi value (human TP calcium mobilisation assay) (converted)
Counter-ions that a name gives are not always drawn.

A selection of reference data follows.
{"compound": "CC(C)c1cc2cc(Cl)cc(Cc3ccc(C(=O)O)o3)c2o1", "experimentalSystem": "human TP receptor (Homo sapiens, UniProt P21731)", "Ki": "< 0.0316 µM"}
{"compound": "Cc1cc(C(=O)Nc2ccc(CN3CC[C@@H](O)C3)cc2)nn1Cc1cc(Cl)cc2cc(C(C)C)oc12 [Example 17, hydrochloride]", "experimentalSystem": "human TP receptor (Homo sapiens, UniProt P21731)", "Ki": "> 3.16 µM"}
{"compound": "Cc1cc(C(=O)NN2CCOCC2)nn1Cc1cc(Cl)cc2cc(C3CCCCC3)oc12", "experimentalSystem": "human TP receptor (Homo sapiens, UniProt P21731)", "Ki": "> 3.16 µM"}
{"compound": "Cc1cc(C(=O)Nc2ccc(CN3CCC(O)CC3)cc2)nn1Cc1cc(Cl)cc2cc(C(C)C)oc12 [Example 16, hydrochloride]", "experimentalSystem": "human TP receptor (Homo sapiens, UniProt P21731)", "Ki": "> 3.16 µM"}
{"compound": "CCNCc1ccc(NC(=O)c2cc(C)n(Cc3cc(Cl)cc4cc(C(C)C)oc34)n2)cc1 [Example 15, hydrochloride]", "experimentalSystem": "human TP receptor (Homo sapiens, UniProt P21731)", "Ki": "> 3.16 µM"}

// field: Ki; key: CC(C)c1cc2cc(Cl)cc(Cc3ccc(-c4nc5ccccc5[nH]4)o3)c2o1 [Example 2, Hydrochloride] ; value = > 3.16 µM

// field: Ki; key: Cc1cc(C(=O)O)nn1Cc1cc(Cl)cc2cc(C(C)C)oc12 ; value = < 3.16 µM

// field: Ki; key: CC(C)c1cc2cc(Cl)cc(Cc3ccc(C(=O)Nc4c(F)cccc4F)o3)c2o1 ; value = > 3.16 µM

====

Target: human EP1 receptor (Homo sapiens)
Sequence (P34995 whole entry): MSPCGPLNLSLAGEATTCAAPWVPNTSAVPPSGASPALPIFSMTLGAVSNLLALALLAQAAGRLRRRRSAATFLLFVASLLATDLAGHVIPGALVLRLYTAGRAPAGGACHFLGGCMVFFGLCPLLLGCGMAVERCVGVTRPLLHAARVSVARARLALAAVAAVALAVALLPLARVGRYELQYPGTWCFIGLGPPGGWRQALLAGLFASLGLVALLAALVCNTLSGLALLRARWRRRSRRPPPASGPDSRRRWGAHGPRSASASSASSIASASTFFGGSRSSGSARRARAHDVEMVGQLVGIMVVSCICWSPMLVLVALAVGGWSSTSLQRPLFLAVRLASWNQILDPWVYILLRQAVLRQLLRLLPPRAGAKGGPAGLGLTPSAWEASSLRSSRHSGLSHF
Experiment: human EP1 calcium mobilisation assay
Format: cell-based
Design: expressed in transfected cells
Conditions: CHO-K1 cells, antagonism of PGE2; averages of a number of experiments; read-out: functional pKi value (human EP1 calcium mobilisation assay) (converted)
Where a name gives a salt, the structure may show the parent alone.
testReadout: Ki

A selection of reference data follows.
{"compound": "CC(C)c1cc2cc(Cl)cc(Cc3ccc(C(=O)NN(C)C)o3)c2o1 [Example 39]", "Ki": "≤ 316 nM"}
{"compound": "Cc1cc(C(=O)Nc2ccc(CN3CCOCC3)cc2)nn1Cc1cc(Br)cc2cc(C(C)C)oc12 [Example 52]", "Ki": "≤ 316 nM"}
{"compound": "CC(C)c1cc2cc(Cl)cc(Cc3cccc(C(=O)O)n3)c2o1 [Example 24]", "Ki": "≤ 316 nM"}

# evaluate next
// field: Ki; key: Cc1cc(C(=O)Nc2ccc(CN3CC[C@@H](O)C3)cc2)nn1Cc1cc(Cl)cc2cc(C(C)C)oc12 [Example 17, hydrochloride] ; value = ≤ 316 nM
